Biological target: α1-adrenoceptors
Assay: Inhibition of [3H]-prazosin binding to α1-adrenoceptors in rat brain in vitro
Conditions: [3H]-prazosin 0.25 nM, membranes from rat brain
log10(IC50) values for the compounds below.
// stored as log10 of IC50 expressed in nM

Examples with their reported log10(IC50) follow.
>>> recordedmeasurement("CN(C)Cc1ccc2c(c1)c(C1=CCN(CCN3CCNC3=O)CC1)cn2-c1ccc(F)cc1")
-0.28
>>> recordedmeasurement("COc1cc2nc(N3CCN(C(=O)c4ccco4)CC3)nc(N)c2cc1OC [Prazosin, reference compound]")
-0.44
>>> recordedmeasurement("CN(C)Cc1ccc2c(c1)c(C1CCN(CCN3CCNC3=O)CC1)cn2-c1ccc(F)cc1")
0.11
>>> recordedmeasurement("O=C1NCCN1CCN1CCC(c2cn(-c3ccc(F)cc3)c3ccc(Cl)cc23)CC1 [Sertindole, sertindole, reference compound]")
0.53

Next compound, please.
In: Quick one: give measured log10(IC50) for `CN(C)C(=O)c1ccc2c(c1)c(C1CCN(CCN3CCNC3=O)CC1)cn2-c1ccc(F)cc1`
Out: 0.73

###

Biological target: dopamine D2 receptors (Rattus norvegicus)
Construct: rats (125-250 g) are sacrificed and striatal tissue is dissected and weighed; from tissue; host or cells: rat corpus striatum membranes (male Wistar rats)
Sequence (P61169 whole entry): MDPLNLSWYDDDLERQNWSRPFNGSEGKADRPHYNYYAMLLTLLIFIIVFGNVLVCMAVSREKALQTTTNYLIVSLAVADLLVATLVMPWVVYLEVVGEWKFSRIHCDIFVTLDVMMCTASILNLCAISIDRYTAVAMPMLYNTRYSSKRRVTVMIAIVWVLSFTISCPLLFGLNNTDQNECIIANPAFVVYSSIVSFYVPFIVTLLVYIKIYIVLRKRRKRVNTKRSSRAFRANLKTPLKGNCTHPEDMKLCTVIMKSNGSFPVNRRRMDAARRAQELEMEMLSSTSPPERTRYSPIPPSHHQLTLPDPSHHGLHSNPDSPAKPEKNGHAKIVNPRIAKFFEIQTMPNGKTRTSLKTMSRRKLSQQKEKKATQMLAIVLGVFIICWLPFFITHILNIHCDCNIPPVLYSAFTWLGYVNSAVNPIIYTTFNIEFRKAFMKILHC
Assay: Inhibition of [3H]-spiperone binding to dopamine D2 receptors in rat corpus striatum in vitro
parameterMeasured: pIC50
pIC50 here: minus log base 10 of the concentration, concentration in moles per litre.

In: Name the value of pIC50 reported for CN(C)Cc1ccc2c(c1)c(C1=CCN(CCN3CCNC3=O)CC1)cn2-c1ccc(F)cc1 [Compound 7d] when tested on dopamine D2 receptors (Rattus norvegicus).
Out: 7.46

###

IC50 values for the compounds below.
Target: serotonin S2 (5HT2A) receptors (Rattus norvegicus)
Construct: rats (125-250 g) are sacrificed and cortical tissue is dissected and weighed; from tissue; host or cells: rat cortex membranes (male Wistar rats)
Sequence (P14842 whole entry): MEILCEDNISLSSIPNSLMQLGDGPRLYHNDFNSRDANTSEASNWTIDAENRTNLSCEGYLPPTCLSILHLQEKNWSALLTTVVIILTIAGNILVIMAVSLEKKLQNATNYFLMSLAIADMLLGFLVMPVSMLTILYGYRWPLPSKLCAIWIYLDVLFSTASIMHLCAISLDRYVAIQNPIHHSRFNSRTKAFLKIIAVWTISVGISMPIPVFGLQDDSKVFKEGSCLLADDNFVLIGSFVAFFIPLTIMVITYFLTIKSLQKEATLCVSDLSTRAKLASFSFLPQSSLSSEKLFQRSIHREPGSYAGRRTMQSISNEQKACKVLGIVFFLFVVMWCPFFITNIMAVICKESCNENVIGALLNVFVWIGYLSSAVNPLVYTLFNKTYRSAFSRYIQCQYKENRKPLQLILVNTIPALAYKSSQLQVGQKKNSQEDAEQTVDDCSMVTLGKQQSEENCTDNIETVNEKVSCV
Assay: Inhibition of [3H]-ketanserin binding to serotonin S2 (5HT2A) receptors in rat cortex in vitro
Settings: [3H]-ketanserin 0.5 nM, membranes from rat cortex; read-out: IC50 values 5-HT2A
The reply should contain only the number, in µM.

>>> recordedmeasurement("CN(C)Cc1ccc2c(c1)c(C1CCN(CCN3CCNC3=O)CC1)cn2-c1ccc(F)cc1 [Compound 7c]")
0.05

In: Quick one: give measured IC50 for CN(C)C(=O)c1ccc2c(c1)c(C1CCN(CCN3CCNC3=O)CC1)cn2-c1ccc(F)cc1 [Compound 7b]
Out: 0.018

###

Target: serotonin S2 (5HT2A) receptors (Rattus norvegicus)
Construct: rats (125-250 g) are sacrificed and cortical tissue is dissected and weighed; from tissue; host or cells: rat cortex membranes (male Wistar rats)
Test: Inhibition of [3H]-ketanserin binding to serotonin S2 (5HT2A) receptors in rat cortex in vitro
parameterMeasured: IC50
The reply should consist of the numeric value with the unit placed after it.

In: Quick one: give measured IC50 for CN(C)Cc1ccc2c(c1)c(C1=CCN(CCN3CCNC3=O)CC1)cn2-c1ccc(F)cc1 [Compound 7d]
Out: 80 nM

These measurements were taken from patent US6833376B2.
